# Tested on: human Factor 11 mRNA
# ASSAY_OVERVIEW: Antisense inhibition of human Factor 11 in HepG2 cells, lipofectin, 75 nM (Example 1)
# Assay type: cell-based
# CONDITION: 75 nM antisense oligonucleotide, ~24 h, relative to untreated control cells, gapmers targeted to SEQ ID NO: 1
Strand notation (5' to 3'): a small letter for the sugar, then the base; units joined by * are phosphorothioate-linked, units joined directly phosphodiester-linked; [ ] holds rarer units or linkages, { } end groups; capitals alone tell only the bases. e = 2'-O-(2-methoxyethyl) (MOE); [5mC] = 5-methylcytosine; d = 2'-deoxy (DNA)
MEASUREMENT_TYPE: % inhibition (%)
Report the figure in % without appending any unit label.

Example entries and their recorded answers appear below.
SUBSTANCE	UNIT_STRING	% inhibition
412188 (antisense eT*eG*eA*eG*eA*dG*dA*dA*dT*dT*dG*d[5mC]*dT*dT*dG*e[5mC]*eT*eT*eT*e[5mC]) [compound 412188]	%	21
413475 (antisense eG*e[5mC]*e[5mC]*eA*eT*dT*d[5mC]*d[5mC]*dT*dG*dG*dG*dA*dA*dA*eA*eG*eA*eA*eG) [compound 413475]	%	80
413474 (antisense eA*eG*e[5mC]*eA*eA*d[5mC]*d[5mC]*dG*dG*dG*dA*dT*dG*dA*dT*eG*eA*eG*eT*eG) [compound 413474]	%	84
413462 (antisense eA*eT*e[5mC]*eT*eT*dA*dG*dT*dA*dT*dG*dT*d[5mC]*dA*dG*eA*eA*eA*eT*eA) [compound 413462]	%	12

Respond only with % inhibition recorded for 412232 (antisense eG*eG*e[5mC]*e[5mC]*eA*d[5mC]*dT*d[5mC]*dA*d[5mC]*d[5mC]*dA*d[5mC]*dG*dA*eA*e[5mC]*eA*eG*eA) [compound 412232] 80

Respond only with % inhibition recorded for 412194 (antisense eT*eG*e[5mC]*eA*eA*dT*dT*d[5mC]*dT*dT*dA*dA*dT*dA*dA*eG*eG*eG*eT*eG) [compound 412194] 80
